test: Apparent half life in Sprague-Dawley rat at 3.6 mg/kg, po; assay type: ADME, organism-based; set-up: dose 3.6 mg/kg, route oral; conditions: Sprague-Dawley, in vivo, read-out: t1/2(app) (converted)
attribute.measured: half-life (h)

# compound, attribute.measured, numeric.readout
records = [
    ("C[S+]([O-])c1ccc(-c2cnc3ccc(-c4cccc(S(=O)(=O)C5CC5)c4)nn23)cc1 (stereo unspecified)", "half-life", 4.8),
]

====

system: CHO cells (Cricetulus griseus); assay: Selectivity index, ratio of IC50 for Chinese hamster CHO cells to IC50 for Plasmodium falciparum

# compound, selectivity ratio
measured = [
    ("CS(=O)(=O)c1ccc(-c2cnc3ccc(-c4ccnc(C(F)(F)F)c4)nn23)cc1", "> 1000"),
    ("CS(=O)(=O)c1cccc(-c2ccc3ncc(-c4ccc(C(=O)O)cc4)n3n2)c1", "> 1000"),
    ("NC(=O)c1ccc(-c2cnc3ccc(-c4cccc(S(=O)(=O)C5CC5)c4)nn23)cc1", "> 1000"),
    ("C[S+]([O-])c1ccc(-c2cnc3ccc(-c4cccc(S(=O)(=O)C5CC5)c4)nn23)cc1 (stereo unspecified)", "> 1000"),
    ("CS(=O)(=O)c1ccc(-c2cnc3ccc(-c4cccc(S(=O)(=O)CCCN)c4)nn23)cc1", "> 1000"),
    ("CS(=O)(=O)c1cccc(-c2ccc3ncc(-c4ccc(S(=O)(=O)CCCN)cc4)n3n2)c1", "> 1000"),
]

====

Entries and their measured solubility follow.
assay: Aqueous solubility of the compound at pH 6.5; assay type: physicochemical; conditions: buffer
attribute.measured: solubility

# compound, attribute.measured, result
measured = [
    ("CS(=O)(=O)c1cccc(-c2ccc3ncc(-c4ccc(S(C)(=O)=O)nc4)n3n2)c1", "solubility", "< 5 µM"),
    ("C[S+]([O-])c1ccc(-c2cnc3ccc(-c4cccc(S(=O)(=O)C5CC5)c4)nn23)cc1 (stereo not drawn)", "solubility", "< 5 µM"),
    ("CS(=O)(=O)c1ccc(-c2cnc3ccc(-c4cccc(S(=O)(=O)C5CC5)c4)nn23)cn1", "solubility", "< 5 µM"),
]

====

assay: Aqueous solubility of the compound at pH 2; format: physicochemical; conditions: buffer
attribute.measured: solubility (µM)

# compound, attribute.measured, unit.of.measure, result.modifier, numeric.readout
rows = [
    ("CS(=O)(=O)c1ccc(-c2cnc3ccc(-c4cccc(C(=O)N5CCC(O)CC5)c4)nn23)cc1", "solubility", "µM", ">", 200),
    ("C[S+]([O-])c1ccc(-c2cnc3ccc(-c4cccc(S(=O)(=O)C5CC5)c4)nn23)cc1 (centres undefined)", "solubility", "µM", "=", 61),
    ("CS(=O)(=O)c1ccc(-c2cnc3ccc(-c4cccc(S(=O)(=O)CCCN)c4)nn23)cc1", "solubility", "µM", ">", 200),
    ("CS(=O)(=O)c1ccc(-c2cnc3ccc(-c4cccc(C(=O)NCCO)c4)nn23)cc1", "solubility", "µM", ">", 200),
    ("CS(=O)(=O)c1cccc(-c2ccc3ncc(-c4ccc(S(=O)(=O)CCCN)cc4)n3n2)c1", "solubility", "µM", ">", 200),
    ("C[S+]([O-])c1cccc(-c2ccc3ncc(-c4ccc(C(N)=O)cc4)n3n2)c1 (centres undefined)", "solubility", "µM", "=", 112),
    ("CS(=O)(=O)c1ccc(-c2cnc3ccc(-c4cncc(S(C)(=O)=O)c4)nn23)cc1", "solubility", "µM", "<", 5),
    ("CS(=O)(=O)c1cncc(-c2ccc3ncc(-c4cncc(S(C)(=O)=O)c4)n3n2)c1", "solubility", "µM", "=", 183),
    ("C[S+]([O-])c1cccc(-c2ccc3ncc(-c4ccc(S(C)(=O)=O)cc4)n3n2)c1 (centres undefined)", "solubility", "µM", "=", 188),
]

====

assay: Cmax in Sprague-Dawley rat at 3.6 mg/kg, po; assay type: ADME, organism-based; parameters: dose 3.6 mg/kg, route oral; conditions: Sprague-Dawley, in vivo

# compound, Cmax, nM
rows = [
    ("C[S+]([O-])c1ccc(-c2cnc3ccc(-c4cccc(S(=O)(=O)C5CC5)c4)nn23)cc1 (stereo unspecified)", 40),
]

====

biological target: Voltage-gated inwardly rectifying potassium channel KCNH2 (Homo sapiens); test: Inhibition of human ERG channel by patch clamp technique
Sequence (Q12809 whole entry): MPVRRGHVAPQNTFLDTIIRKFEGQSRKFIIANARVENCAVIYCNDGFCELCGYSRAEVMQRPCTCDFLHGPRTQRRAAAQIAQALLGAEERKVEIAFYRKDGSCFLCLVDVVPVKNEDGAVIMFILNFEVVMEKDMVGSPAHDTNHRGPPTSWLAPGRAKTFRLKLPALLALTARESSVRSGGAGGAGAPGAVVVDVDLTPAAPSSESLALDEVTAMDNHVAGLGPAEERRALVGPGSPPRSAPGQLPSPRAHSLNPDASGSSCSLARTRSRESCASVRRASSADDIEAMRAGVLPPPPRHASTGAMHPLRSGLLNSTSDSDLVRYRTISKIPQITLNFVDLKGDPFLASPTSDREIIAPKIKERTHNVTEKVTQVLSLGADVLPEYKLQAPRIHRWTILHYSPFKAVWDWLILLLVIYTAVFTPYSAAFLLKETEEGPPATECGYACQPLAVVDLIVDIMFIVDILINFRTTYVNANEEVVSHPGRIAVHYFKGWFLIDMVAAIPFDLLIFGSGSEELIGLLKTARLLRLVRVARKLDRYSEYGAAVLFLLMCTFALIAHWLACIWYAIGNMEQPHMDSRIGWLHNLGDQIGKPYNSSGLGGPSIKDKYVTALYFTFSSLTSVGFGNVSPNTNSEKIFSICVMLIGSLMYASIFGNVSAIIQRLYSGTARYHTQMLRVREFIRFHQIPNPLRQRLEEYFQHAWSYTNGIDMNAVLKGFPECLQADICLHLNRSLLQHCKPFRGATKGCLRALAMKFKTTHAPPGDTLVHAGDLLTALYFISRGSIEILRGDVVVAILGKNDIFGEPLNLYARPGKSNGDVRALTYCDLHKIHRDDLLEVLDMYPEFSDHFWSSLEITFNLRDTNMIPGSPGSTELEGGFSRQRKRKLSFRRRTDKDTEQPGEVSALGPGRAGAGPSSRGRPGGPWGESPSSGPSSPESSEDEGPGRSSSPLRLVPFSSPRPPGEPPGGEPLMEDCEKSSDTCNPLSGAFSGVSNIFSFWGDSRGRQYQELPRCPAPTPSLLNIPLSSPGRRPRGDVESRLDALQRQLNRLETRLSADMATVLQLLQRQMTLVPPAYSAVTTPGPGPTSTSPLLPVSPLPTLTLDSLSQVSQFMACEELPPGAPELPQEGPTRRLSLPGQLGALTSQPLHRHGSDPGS
Entries and their measured IC50 follow.

# compound, result.modifier, IC50 [µM]
measured = [
    ("CS(=O)(=O)c1ccc(-c2cnc3ccc(-c4cccc(S(=O)(=O)CCCN)c4)nn23)cc1", ">", 33),
    ("CS(=O)(=O)c1cccc(-c2ccc3ncc(-c4ccc(C(=O)N5CCC(O)C5)cc4)n3n2)c1 (stereo not given)", ">", 33),
    ("O=S(=O)(c1cccc(-c2ccc3ncc(-c4ccc(-c5nnn[nH]5)cc4)n3n2)c1)C1CC1", ">", 33),
    ("C[S+]([O-])c1cccc(-c2ccc3ncc(-c4ccc(S(C)(=O)=O)cc4)n3n2)c1 (stereo not given)", "=", 4),
    ("C[S+]([O-])c1ccc(-c2cnc3ccc(-c4cccc([S+](C)[O-])c4)nn23)cc1 (stereo not given)", "=", 12),
]

====

Entries and their measured IC50 follow.
tested on: Plasmodium falciparum; assay: Antiplasmodial activity against Plasmodium falciparum NF54 by [3H]hypoxanthine incorporation assay; type: functional, organism-based

# compound, IC50, nM
rows = [
    ("O=S(=O)(c1cccc(-c2ccc3ncc(-c4ccc(-c5nnn[nH]5)cc4)n3n2)c1)C1CC1", 43),
    ("C[S+]([O-])c1cccc(-c2ccc3ncc(-c4ccc(S(C)(=O)=O)cc4)n3n2)c1 (configuration not stated)", 39),
    ("CS(=O)(=O)c1cncc(-c2cnc3ccc(-c4cccc(S(=O)(=O)C5CC5)c4)nn23)c1", 37),
    ("CS(=O)(=O)c1ccc(-c2cnc3ccc(-c4cccc(S(=O)(=O)C5CC5)c4)nn23)cn1", 3.3),
    ("C[S+]([O-])c1cccc(-c2ccc3ncc(-c4ccc(C(N)=O)cc4)n3n2)c1 (configuration not stated)", 103),
    ("C[S+]([O-])c1ccc(-c2cnc3ccc(-c4cccc([S+](C)[O-])c4)nn23)cc1 (configuration not stated)", 35),
    ("CS(=O)(=O)c1cncc(-c2ccc3ncc(-c4ccc(S(C)(=O)=O)nc4)n3n2)c1", 808),
    ("CS(=O)(=O)c1ccc(-c2cnc3ccc(-c4cncc(S(C)(=O)=O)c4)nn23)cc1", 96),
    ("CS(=O)(=O)c1cccc(-c2ccc3ncc(-c4ccc(C(=O)N5CCC(O)C5)cc4)n3n2)c1 (configuration not stated)", 18),
    ("CS(=O)(=O)c1ccc(-c2cnc3ccc(-c4cccc(S(=O)(=O)CCO)c4)nn23)cc1", 2.2),
    ("CS(=O)(=O)c1cccc(-c2ccc3ncc(-c4cncc(S(C)(=O)=O)c4)n3n2)c1", 58),
    ("CS(=O)(=O)c1ccc(-c2cnc3ccc(-c4cccc(C(=O)N5CCC(O)CC5)c4)nn23)cc1", 6.5),
    ("CS(=O)(=O)c1ccc(-c2cnc3ccc(-c4cccc(S(=O)(=O)CCCN)c4)nn23)cc1", 3),
    ("CS(=O)(=O)c1cccc(-c2ccc3ncc(-c4ccc(N)nc4)n3n2)c1", 23),
    ("C[S+]([O-])c1ccc(-c2cnc3ccc(-c4cccc(S(=O)(=O)C5CC5)c4)nn23)cc1 (configuration not stated)", 1.1),
    ("CS(=O)(=O)c1ccc(-c2cnc3ccc(-c4cccc(S(=O)(=O)C5CC5)c4)nn23)cc1", 0.88),
    ("CS(=O)(=O)c1ccc(-c2cnc3ccc(-c4ccnc(C(F)(F)F)c4)nn23)cc1", 45),
]

====

system: Rattus norvegicus; assay: Cmax in Sprague-Dawley rat at 3.6 mg/kg, po; type: ADME, organism-based; design: dose 3.6 mg/kg, route oral; settings: in vivo
attribute.measured: Cmax (nM)

# structure.string, attribute.measured, numeric.readout
rows = [
    ("CS(=O)(=O)c1ccc(-c2cnc3ccc(-c4cccc(S(=O)(=O)C5CC5)c4)nn23)cc1", "Cmax", 1500),
]

====

test system: Plasmodium falciparum; assay: Antiplasmodial activity against Plasmodium falciparum NF54 by [3H]hypoxanthine incorporation assay; assay type: functional, organism-based
Entries and their measured log10(IC50) follow.
attribute.measured: log10(IC50) (log10 of the value in nM)

# molecule, log10(IC50)
data = [
    ("CS(=O)(=O)c1cccc(-c2ccc3ncc(-c4ccc(S(C)(=O)=O)nc4)n3n2)c1", 1.08),
    ("CS(=O)(=O)c1ccc(-c2cnc3ccc(-c4cncc(N)c4)nn23)cc1", 1.84),
    ("CS(=O)(=O)c1ccc(-c2cnc3ccc(-c4cncc(C(F)(F)F)c4)nn23)cc1", 3.02),
    ("NC(=O)c1ccc(-c2cnc3ccc(-c4cccc(S(=O)(=O)C5CC5)c4)nn23)cc1", 0.18),
    ("CS(=O)(=O)c1cncc(-c2ccc3ncc(-c4cncc(S(C)(=O)=O)c4)n3n2)c1", 2.80),
    ("CS(=O)(=O)c1cccc(-c2ccc3ncc(-c4ccc(S(=O)(=O)CCCN)cc4)n3n2)c1", 1.04),
    ("CS(=O)(=O)c1cccc(-c2ccc3ncc(-c4ccc(S(=O)(=O)N5CCNCC5)cc4)n3n2)c1", 1.15),
    ("CS(=O)(=O)c1cncc(-c2ccc3ncc(-c4ccc(S(=O)(=O)C5CC5)cc4)n3n2)c1", 2.82),
    ("C[S+]([O-])c1ccc(-c2cnc3ccc(-c4cccc(S(C)(=O)=O)c4)nn23)cc1 (centres undefined)", 0.81),
]
